Catalogue of binding signal readings, one per entry.
Biological target: T1, RBFOX1 RRM (Homo sapiens, UniProt Q9NWB1 109-208)
T1 sequence: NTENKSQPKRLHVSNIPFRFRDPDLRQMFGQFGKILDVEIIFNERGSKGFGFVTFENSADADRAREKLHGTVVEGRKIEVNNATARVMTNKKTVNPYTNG
Assay: EMSA; HiTS-Eq, 1 nM pool, 10 min; buffer printed only for the single-RNA assays: 10 mM Tris pH 7.5, 150 mM NaCl, 3.4 mM EDTA, 0.001% NP-40, 30 C
Conditions: tags: His6 N-terminal (pET28a); label: 5' 32P
Whole data set: some 16,000 sequences, median “ka relative to ugcaugu” near 0.0091, cut for the highest 2% near 0.032. The list comes from a sample in which the highest values are over-represented; it also holds close analogues and randomly drawn sequences.

Answered cases to consult:
binder	readout	observed.value
AGGUCUA (DNA:RNA) RNA: GGGAGACCGGAAUUCAGAUUGUCCAGGUCUAUUAAAUCCCGUCGUAGCCACCA DNA 1: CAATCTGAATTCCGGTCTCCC DNA 2: TGGTGGCTACGACGGGATT	binding signal	0.00527 KA relative to UGCAUGU
CACUUGG (DNA:RNA) RNA: GGGAGACCGGAAUUCAGAUUGUCCCACUUGGUUAAAUCCCGUCGUAGCCACCA DNA 1: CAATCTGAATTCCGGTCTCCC DNA 2: TGGTGGCTACGACGGGATT	binding signal	0.0107 KA relative to UGCAUGU
UUUGUCC (DNA:RNA) RNA: GGGAGACCGGAAUUCAGAUUGUCCUUUGUCCUUAAAUCCCGUCGUAGCCACCA DNA 1: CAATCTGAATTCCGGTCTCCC DNA 2: TGGTGGCTACGACGGGATT	binding signal	0.0149 KA relative to UGCAUGU

Attention now shifts to the item below.
Give its binding signal value. Item: GCGGCGG (DNA:RNA) RNA: GGGAGACCGGAAUUCAGAUUGUCCGCGGCGGUUAAAUCCCGUCGUAGCCACCA DNA 1: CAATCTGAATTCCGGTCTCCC DNA 2: TGGTGGCTACGACGGGATT
0.0288 KA relative to UGCAUGU
